Numbers sourced from patent US11957680B2.

biological target: wild type PKR (Homo sapiens, UniProt P30613); assay: PKR (wild type) enzyme AC50 assay, LDH/NADH-coupled, absorbance at 340 nm; assay type: biochemical; conditions: Table 2; enzyme assay; read-out: PKR WT AC50
Sequence (P30613 whole entry): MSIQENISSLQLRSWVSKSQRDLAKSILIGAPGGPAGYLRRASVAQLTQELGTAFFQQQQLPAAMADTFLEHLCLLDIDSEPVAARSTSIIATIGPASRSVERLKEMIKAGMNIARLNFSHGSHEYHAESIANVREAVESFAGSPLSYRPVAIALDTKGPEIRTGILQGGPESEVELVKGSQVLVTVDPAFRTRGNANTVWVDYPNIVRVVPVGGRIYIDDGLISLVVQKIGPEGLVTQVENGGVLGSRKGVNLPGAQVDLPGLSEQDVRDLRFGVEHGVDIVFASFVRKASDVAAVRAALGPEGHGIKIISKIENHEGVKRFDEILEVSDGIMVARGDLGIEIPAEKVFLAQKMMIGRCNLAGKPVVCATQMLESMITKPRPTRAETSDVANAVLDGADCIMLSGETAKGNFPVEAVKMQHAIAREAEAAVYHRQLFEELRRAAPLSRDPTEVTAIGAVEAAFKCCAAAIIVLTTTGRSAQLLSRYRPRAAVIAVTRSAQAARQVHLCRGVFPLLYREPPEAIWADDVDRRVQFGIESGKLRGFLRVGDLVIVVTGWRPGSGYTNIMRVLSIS
compounds and their reported AC50

{"compound": "Cn1c2nc(NCc3ccccc3)sc2c2cnn(Cc3cccc4[nH]ncc34)c(=O)c21 [Compound 149]", "AC50": "301 to 800 nM"}
{"compound": "Cn1c2nc(C(O)c3ccccc3)sc2c2cnn(Cc3cccc4[nH]ncc34)c(=O)c21 (centres unmarked) [Compound 117]", "AC50": "< 300 nM"}
{"compound": "Cn1c2nc(Cc3n[nH]cc3C(F)(F)F)sc2c2cnn(Cc3cccc4[nH]ncc34)c(=O)c21 [Compound 172]", "AC50": "> 800 nM"}
{"compound": "CC(=O)c1cccc(Cn2ncc3c4sc([S+](C)[O-])nc4n(C)c3c2=O)c1 (centres unmarked) [Compound 86]", "AC50": "< 300 nM"}
{"compound": "COc1cccc(Cn2ncc3c4sc(C(C)(C)O)nc4n(C)c3c2=O)c1 [Compound 63]", "AC50": "< 300 nM"}
{"compound": "Cc1nc2c(s1)c1cnn(CCCO)c(=O)c1n2C [Compound 46]", "AC50": "> 800 nM"}
{"compound": "COc1cccc(Cn2ncc3c4sc(Cc5ccc(C#N)cc5)nc4n(C)c3c2=O)c1 [Compound 64]", "AC50": "< 300 nM"}
{"compound": "Cc1nc2c(s1)c1cnn(CCO)c(=O)c1n2C [Compound 67]", "AC50": "> 800 nM"}
{"compound": "Cn1c2nc(C3(c4ccccc4)CC3)sc2c2cnn(Cc3cccc4[nH]ncc34)c(=O)c21 [Compound 140]", "AC50": "> 800 nM"}
{"compound": "COC(=O)Cc1nc2c(s1)c1cnn(Cc3cccc4[nH]ncc34)c(=O)c1n2C [Compound 131]", "AC50": "301 to 800 nM"}
{"compound": "Cn1c2nc(Cc3ccc4[nH]ncc4c3)sc2c2cnn(Cc3cccc4[nH]ncc34)c(=O)c21 [Compound 154]", "AC50": "< 300 nM"}
{"compound": "COc1cccc(Cn2ncc3c4sc(C(F)c5ccccc5)nc4n(C)c3c2=O)c1 (centres unmarked) [Compound 12]", "AC50": "< 300 nM"}
{"compound": "Cn1c2nc(CCO)sc2c2cnn(Cc3cccc4[nH]ncc34)c(=O)c21 [Compound 124]", "AC50": "< 300 nM"}
{"compound": "Cn1c2nc(Cc3cccc(S(N)(=O)=O)c3)sc2c2cnn(Cc3cccc4[nH]ncc34)c(=O)c21 [Compound 155]", "AC50": "301 to 800 nM"}
{"compound": "Cn1c2nc(Cc3ccccc3)sc2c2cnn(Cc3cccc4[nH]ncc34)c(=O)c21 [Compound 91]", "AC50": "< 300 nM"}
{"compound": "Cc1cccc(Cc2nc3c(s2)c2cnn(Cc4cccc5[nH]ncc45)c(=O)c2n3C)n1 [Compound 159]", "AC50": "< 300 nM"}
{"compound": "Cn1c2nc(C(C(N)=O)c3ccccc3)sc2c2cnn(Cc3cccc4[nH]ncc34)c(=O)c21 (centres unmarked) [Compound 127]", "AC50": "< 300 nM"}

---

target: PKR R510Q (Homo sapiens, UniProt P30613, R510Q); experiment: PKR mutant assay (R510Q), AC50, LDH/NADH-coupled, absorbance at 340 nm; assay type: biochemical; details: Table 2; enzyme assay; read-out: PK R510Q AC50
Sequence (P30613 whole entry R510Q): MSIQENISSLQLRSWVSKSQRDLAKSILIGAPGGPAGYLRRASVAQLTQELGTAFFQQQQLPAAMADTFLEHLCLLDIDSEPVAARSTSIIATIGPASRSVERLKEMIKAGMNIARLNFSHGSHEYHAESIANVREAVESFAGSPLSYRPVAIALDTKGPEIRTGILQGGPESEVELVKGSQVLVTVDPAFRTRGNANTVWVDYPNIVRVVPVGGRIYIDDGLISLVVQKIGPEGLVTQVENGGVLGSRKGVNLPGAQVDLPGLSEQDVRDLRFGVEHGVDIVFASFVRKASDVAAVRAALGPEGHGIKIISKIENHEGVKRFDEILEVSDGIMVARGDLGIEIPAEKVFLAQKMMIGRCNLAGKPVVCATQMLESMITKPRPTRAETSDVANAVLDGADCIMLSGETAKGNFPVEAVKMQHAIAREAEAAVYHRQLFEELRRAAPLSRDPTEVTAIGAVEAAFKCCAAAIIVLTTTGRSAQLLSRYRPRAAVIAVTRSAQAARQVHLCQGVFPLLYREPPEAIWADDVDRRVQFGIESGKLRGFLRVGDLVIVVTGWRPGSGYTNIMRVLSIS

{"compound": "C=Cc1nc2c(s1)c1cnn(Cc3cccc4[nH]ncc34)c(=O)c1n2C [Compound 104]", "AC50": "< 0.3 µM"}
{"compound": "Cn1c2nc(CCO)sc2c2cnn(Cc3cccc4[nH]ncc34)c(=O)c21 [Compound 124]", "AC50": "< 0.3 µM"}
{"compound": "Cn1c2nc([S+](C)[O-])sc2c2cnn(Cc3cccc(C(C)(C)O)c3)c(=O)c21 (stereo not shown) [Compound 87]", "AC50": "0.301 to 0.8 µM"}
{"compound": "Cn1c2nc(Cc3cnoc3)sc2c2cnn(Cc3cccc4[nH]ncc34)c(=O)c21 [Compound 185]", "AC50": "0.301 to 0.8 µM"}
